Consider the following molecules; for each one, report its activation at 0.01 µM.
Assay System: human β2 adrenergic receptor (Homo sapiens)
Sequence (P07550 whole entry): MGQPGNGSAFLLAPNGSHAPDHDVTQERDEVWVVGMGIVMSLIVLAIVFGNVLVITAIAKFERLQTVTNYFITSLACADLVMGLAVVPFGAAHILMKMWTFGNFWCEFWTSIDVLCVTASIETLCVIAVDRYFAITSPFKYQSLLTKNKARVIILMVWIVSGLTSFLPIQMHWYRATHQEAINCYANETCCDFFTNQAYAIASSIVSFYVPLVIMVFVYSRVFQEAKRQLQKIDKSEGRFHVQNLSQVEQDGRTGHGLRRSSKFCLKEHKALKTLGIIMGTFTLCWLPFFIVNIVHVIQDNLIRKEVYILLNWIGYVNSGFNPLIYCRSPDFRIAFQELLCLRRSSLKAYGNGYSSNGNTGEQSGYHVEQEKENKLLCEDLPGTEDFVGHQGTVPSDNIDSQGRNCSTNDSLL
Experimental Protocol: cell-based
Measurement Parameters: 10 min; compounds tested at 10 nM, isoproterenol at 10 μM; CHO cells, 10 min at 37° C; read-out: β2: % of isoproterenol activity (increase in cAMP)
Method: The activity of the test compounds on human β-adrenergic receptors was determined with Chinese hamster ovary (CHO) cells transfected with human β2, or β1 adrenergic receptors. Agonist activity is indicated by increased cAMP levels in the CHO cells. Selectivity of the test compounds for the β3 receptor was assessed by comparison with results in β2 and β1 adrenergic receptor transfected cells. 1). […] 6). Activities for the test compounds are expressed as a percentage of the isoproterenol response. […]
The reply should contain only the number, in %.

The molecule listed as CCCCCCCCCOC(=O)C1(C(=O)OCCCCCCCCC)Oc2ccc(CC(C)NCC(O)c3cccc(Cl)c3)cc2O1 (stereo not drawn) has a reported activation at 0.01 µM of 6

The molecule listed as C[C@H](Cc1ccc2c(c1)OC(C(=O)OC/C=C\COCc1ccccc1)(C(=O)OC/C=C\COCc1ccccc1)O2)NC[C@H](O)c1cccc(Cl)c1 has a reported activation at 0.01 µM of 3

The molecule listed as CC(Cc1ccc2c(c1)OC(C(=O)OCCC1CCCC1)(C(=O)OCCC1CCCC1)O2)NCC(O)c1cccc(Cl)c1 (stereo not drawn) has a reported activation at 0.01 µM of 22

The molecule listed as CC(Cc1ccc2c(c1)OC(C(=O)OCOC(=O)C(C)(C)C)(C(=O)OCOC(=O)C(C)(C)C)O2)NCC(O)c1cccc(Cl)c1 (stereo not drawn) has a reported activation at 0.01 µM of 4

The molecule listed as CCCC(=O)OCOC(=O)C1(C(=O)OCOC(=O)CCC)Oc2ccc(CC(C)NCC(O)c3cccc(Cl)c3)cc2O1 (stereo not drawn) has a reported activation at 0.01 µM of 0

The molecule listed as CC(Cc1ccc2c(c1)OC(C(=O)OCOC(=O)C1CCCCC1)(C(=O)OCOC(=O)C1CCCCC1)O2)NCC(O)c1cccc(Cl)c1 (stereo not drawn) has a reported activation at 0.01 µM of 0

====

Assay System: human β2 adrenergic receptor (Homo sapiens)
Experimental Protocol: cell-based
Reported Endpoint: EC50 (nM)
The reply should contain only the number, in nM.

The molecule listed as C[C@H](Cc1ccc2c(c1)OC(C(=O)O)(C(=O)OCC(C)(C)C)O2)NC[C@H](O)c1cccc(Cl)c1 (some centres unmarked) [Example 80] has a reported EC50 of 55

The molecule listed as CC(Cc1ccc2c(c1)OC(C(=O)O)(C(=O)OCC1CC1)O2)NCC(O)c1cccc(Cl)c1 (centres unmarked) [Example 69] has a reported EC50 of 79

The molecule listed as CC(Cc1ccc2c(c1)OC(C(=O)O)(C(=O)OCC1CCC1)O2)NCC(O)c1cccc(Cl)c1 (centres unmarked) [Example 70] has a reported EC50 of 48

The molecule listed as CC(Cc1ccc2c(c1)OC(C(=O)O)(C(=O)OC(C)C)O2)NCC(O)c1cccc(Cl)c1 (centres unmarked) [Example 22] has a reported EC50 of 15

The molecule listed as CC(C)CCOC(=O)C1(C(=O)O)Oc2ccc(C[C@@H](C)NC[C@H](O)c3cccc(Cl)c3)cc2O1 (some centres unmarked) [Example 76] has a reported EC50 of 74
